Biological target: T1, His-tagged ILT3 protein extracellular domain: ILT3-His (human, UniProt Q8NHJ6 22-259)
T1 construct: The entry is the whole construct, with the His tag
Assay: ELISA, coated protein 1 µg/mL, antibody 10 µg/mL
measurementName: absorbance at 450 nm (absorbance at 450 nm)
Kindly answer with a numeric value in absorbance at 450 nm, unit omitted.

Return reported absorbance at 450 nm. Input binder: fully human-derived antibody P2m (antibody, human IgG1, kappa, L234A L235A, V domains shown, Full chains) VH: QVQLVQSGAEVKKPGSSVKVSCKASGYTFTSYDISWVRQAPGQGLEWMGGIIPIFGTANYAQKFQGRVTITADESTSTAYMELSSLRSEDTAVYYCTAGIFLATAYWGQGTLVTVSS VL: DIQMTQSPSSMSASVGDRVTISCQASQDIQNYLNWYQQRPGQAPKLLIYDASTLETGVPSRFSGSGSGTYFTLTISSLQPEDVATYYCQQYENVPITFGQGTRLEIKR
0.0671
